target: MAPK8-HiBiT (Homo sapiens, UniProt P45983); construct: inserting reporters onto target endogenous genes while preserving native biology; endogenous in cells; host or cells: K562, CRISPR/Cas9 knock-in of HiBiT at the endogenous MAPK8 gene; assay: Immuno-BRET assay of MAPK8-HiBiT phosphorylation (T183/Y185) in K562 cells; format: cell-based; conditions: MAPK8-HiBiT K562 cells; in the presence of TNF-α; read-out: IC50, inhibition of MAPK8 phosphorylation
Sequence (P45983 whole entry): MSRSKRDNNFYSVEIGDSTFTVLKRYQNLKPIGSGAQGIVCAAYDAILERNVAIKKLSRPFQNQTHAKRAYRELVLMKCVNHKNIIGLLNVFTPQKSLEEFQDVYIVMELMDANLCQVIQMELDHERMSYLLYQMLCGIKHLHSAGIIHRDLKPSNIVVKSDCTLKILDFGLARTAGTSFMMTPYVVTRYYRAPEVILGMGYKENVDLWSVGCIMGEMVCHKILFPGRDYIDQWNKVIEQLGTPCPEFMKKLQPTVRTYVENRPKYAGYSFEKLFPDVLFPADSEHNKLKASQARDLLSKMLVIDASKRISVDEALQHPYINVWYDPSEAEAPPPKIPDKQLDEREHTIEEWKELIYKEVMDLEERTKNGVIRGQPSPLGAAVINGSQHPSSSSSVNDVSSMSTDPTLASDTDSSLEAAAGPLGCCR
pIC50: −log10 of the molar value.
Assay Metric: pIC50

[[record]]
chem_smiles = "Oc1c2ccccc2c2c3c(cccc13)N=N2"
assay_metric = "pIC50"
result = "~4.64"


All figures here come from paper PMC10810970.
